System: biotinyl-Phe-oxazolone
Assay: self-aminoacylation, catalytic enhancement (BFO) (fold over background); higher = more active; k-Seq, kA / k0A0; sequences stand for … in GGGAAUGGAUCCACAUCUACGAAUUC…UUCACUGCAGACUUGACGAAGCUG
Fewer inactive variants are shown than the library holds.
outcome_measure: self-aminoacylation
Answer with a bare number; do not write a unit.

Please review the entries below; each comes with its answer.
macromolecule_sequence	self-aminoacylation
AUUACCAUGGUCAUCGAGGGA [Fam2.1 aminoacylation ribozyme variant]	2.21
AUUCACCUGGAUCAUCGGGUG [Fam2.2 aminoacylation ribozyme variant]	15.1
AUUGGCCUAGGUCAUCGGGUG [Fam2.2 aminoacylation ribozyme variant]	277
AAGUUAGCUAAUAGUCGCAAU [Fam3.1 aminoacylation ribozyme variant]	2.2
AUUAACCUGGUCCUCGAGUGA [Fam2.1 aminoacylation ribozyme variant]	19.7
UCAUACUUCAAGCAAUCGGUC [Fam1B.1 aminoacylation ribozyme variant]	16.9
CCACACUUCAAGCAACCGGAC [Fam1B.1 aminoacylation ribozyme variant]	0.734
CCACAAUUCAAGCAAUCUGUC [Fam1B.1 aminoacylation ribozyme variant]	0.965

Now for the sequence whose self-aminoacylation we want.
[in] Which measured self-aminoacylation value corresponds to CUACUUGAAACAAUCUGUCUG [Fam1A.1 aminoacylation ribozyme variant] ?
[out] 0.472
